Where do these numbers come from? They come from patent US20260285856A1.

# system_tested: EGFR phosphorylation (pEGFR) in CUTO14 cells (Homo sapiens, UniProt P00533, INS769ASV)
# experiment_notes: EGFR phosphorylation (pEGFR) AlphaLISA in CUTO14 cells
# experimental_context: 2 hours
# Protocol: EGFR mutant Ba/F3 cells were generated by transduction with retrovirus containing vectors expressing EGFR exon 20 NPG Ins D770_N771, EGFR exon 20 ASV Ins V769_D770, or EGFR exon 20 SVD Ins D770_N771 genes along with a puromycin selection marker. […] • 2.1 Test compounds are dissolved to 10 mM in a DMSO stock solution. […] Mix well on the shaker, seal and wrap in aluminum foil and incubate 1.5 hrs at room temperature in the dark • 3.5 Transfer 18.5 μL mixture to OptiPlate 384, and read using an Envision.
pIC50: −log10 of the molar value.
endpoint_label: pIC50

{"compound_smiles": "COc1c(Cl)cccc1Nc1c(-c2ccncc2C#C[C@@]2(C)CCCN2C(=O)/C=C/CN(C)C)[nH]c2cc[nH]c(=O)c12", "system_tested": "EGFR phosphorylation (pEGFR) in CUTO14 cells (Homo sapiens, UniProt P00533, INS769ASV)", "endpoint_label": "pIC50", "observed": "> 7.00"}

----------
# system_tested: EGFR exon 20 SVD Ins D770_N771 (Homo sapiens, UniProt P00533, INS770SVD)
# Sequence (P00533 with tags, fused parts or gaps INS770SVD): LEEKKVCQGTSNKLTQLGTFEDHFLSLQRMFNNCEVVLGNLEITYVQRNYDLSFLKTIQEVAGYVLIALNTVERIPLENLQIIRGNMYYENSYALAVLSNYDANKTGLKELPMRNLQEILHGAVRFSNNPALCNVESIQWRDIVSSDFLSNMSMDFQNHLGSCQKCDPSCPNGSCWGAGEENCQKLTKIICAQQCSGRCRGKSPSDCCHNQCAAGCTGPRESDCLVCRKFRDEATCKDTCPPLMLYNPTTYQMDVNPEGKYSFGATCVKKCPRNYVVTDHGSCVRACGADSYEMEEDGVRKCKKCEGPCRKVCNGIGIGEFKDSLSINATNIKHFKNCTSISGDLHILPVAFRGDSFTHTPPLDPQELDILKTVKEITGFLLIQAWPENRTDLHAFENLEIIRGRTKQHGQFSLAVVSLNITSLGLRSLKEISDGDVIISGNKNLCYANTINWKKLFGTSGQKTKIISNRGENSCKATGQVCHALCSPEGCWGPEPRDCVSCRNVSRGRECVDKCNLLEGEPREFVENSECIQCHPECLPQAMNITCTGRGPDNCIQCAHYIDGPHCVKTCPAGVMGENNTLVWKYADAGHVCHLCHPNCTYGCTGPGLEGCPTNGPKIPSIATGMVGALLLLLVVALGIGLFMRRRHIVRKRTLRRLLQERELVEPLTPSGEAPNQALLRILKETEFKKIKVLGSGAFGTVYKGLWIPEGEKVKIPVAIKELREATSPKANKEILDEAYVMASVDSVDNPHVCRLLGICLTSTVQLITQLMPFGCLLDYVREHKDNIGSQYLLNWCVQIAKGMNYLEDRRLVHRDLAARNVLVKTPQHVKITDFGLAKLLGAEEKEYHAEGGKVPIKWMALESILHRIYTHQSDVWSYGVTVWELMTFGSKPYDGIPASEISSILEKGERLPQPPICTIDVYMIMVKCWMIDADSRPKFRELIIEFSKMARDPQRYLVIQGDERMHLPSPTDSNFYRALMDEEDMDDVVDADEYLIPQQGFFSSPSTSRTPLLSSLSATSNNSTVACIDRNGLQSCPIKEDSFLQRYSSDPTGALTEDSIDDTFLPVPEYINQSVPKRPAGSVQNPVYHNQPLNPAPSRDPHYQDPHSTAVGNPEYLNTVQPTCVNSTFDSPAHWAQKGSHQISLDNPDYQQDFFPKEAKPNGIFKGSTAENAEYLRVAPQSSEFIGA
# experiment_notes: Ba/F3 cell viability (CellTiter-Glo), EGFR exon 20 SVD insertion
# experimental_context: Ba/F3 cells expressing EGFR exon 20 SVD Ins D770_N771, 72 hours, read-out: BaF3 SVD IC50
pIC50: −log10 of the molar value.

{"molecule": "COc1c(Cl)cccc1Nc1c(-c2ccncc2C#C[C@@]2(C)CCCN2C(=O)/C=C/CN(C)C)[nH]c2cc[nH]c(=O)c12 [(I)]", "pIC50": "> 7.00"}

----------
# system_tested: EGFR WT (Homo sapiens)
# Construct: maintained with supplemental EGF
# Sequence (P00533 25-1210): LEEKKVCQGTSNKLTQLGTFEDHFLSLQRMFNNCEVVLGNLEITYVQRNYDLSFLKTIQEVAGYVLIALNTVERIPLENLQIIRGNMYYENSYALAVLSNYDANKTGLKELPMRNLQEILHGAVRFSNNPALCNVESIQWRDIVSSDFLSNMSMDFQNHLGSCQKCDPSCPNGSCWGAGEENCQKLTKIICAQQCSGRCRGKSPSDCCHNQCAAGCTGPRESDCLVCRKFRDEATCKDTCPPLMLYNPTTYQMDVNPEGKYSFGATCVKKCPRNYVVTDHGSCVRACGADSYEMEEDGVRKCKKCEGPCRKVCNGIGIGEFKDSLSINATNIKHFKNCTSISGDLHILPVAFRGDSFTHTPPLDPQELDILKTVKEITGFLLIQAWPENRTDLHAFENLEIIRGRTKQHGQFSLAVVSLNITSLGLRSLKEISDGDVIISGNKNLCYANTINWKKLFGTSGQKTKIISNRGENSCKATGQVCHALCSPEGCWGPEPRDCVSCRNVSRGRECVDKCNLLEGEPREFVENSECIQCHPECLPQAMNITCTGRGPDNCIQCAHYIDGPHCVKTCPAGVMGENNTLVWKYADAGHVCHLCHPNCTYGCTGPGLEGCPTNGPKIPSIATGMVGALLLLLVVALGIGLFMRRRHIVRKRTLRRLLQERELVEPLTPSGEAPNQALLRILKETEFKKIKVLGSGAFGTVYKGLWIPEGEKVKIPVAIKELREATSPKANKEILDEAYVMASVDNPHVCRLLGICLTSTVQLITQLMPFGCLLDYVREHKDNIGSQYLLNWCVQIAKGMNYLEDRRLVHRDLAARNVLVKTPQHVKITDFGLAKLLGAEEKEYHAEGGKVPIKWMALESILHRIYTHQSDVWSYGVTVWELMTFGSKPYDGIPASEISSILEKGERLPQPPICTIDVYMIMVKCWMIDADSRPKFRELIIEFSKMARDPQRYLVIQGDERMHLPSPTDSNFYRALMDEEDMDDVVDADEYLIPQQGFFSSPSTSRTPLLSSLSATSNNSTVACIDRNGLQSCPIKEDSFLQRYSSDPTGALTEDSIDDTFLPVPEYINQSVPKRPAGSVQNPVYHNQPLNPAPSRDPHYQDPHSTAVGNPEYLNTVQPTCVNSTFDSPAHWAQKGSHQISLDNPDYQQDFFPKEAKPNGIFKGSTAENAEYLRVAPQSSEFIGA
# experiment_notes: Ba/F3 cell viability (CellTiter-Glo), EGFR WT
# experimental_context: Ba/F3 cells expressing EGFR WT, supplemental EGF, 72 hours, read-out: BaF3 WT IC50

{"molecule": "COc1c(Cl)cccc1Nc1c(-c2ccncc2C#C[C@@]2(C)CCCN2C(=O)/C=C/CN(C)C)[nH]c2cc[nH]c(=O)c12 [(I)]", "system_tested": "EGFR WT (Homo sapiens)", "IC50": "≥ 1000 nM"}

----------
# system_tested: EGFR exon 20 ASV Ins V769_D770 (Homo sapiens, UniProt P00533, INS769ASV)
# Sequence (P00533 with tags, fused parts or gaps INS769ASV): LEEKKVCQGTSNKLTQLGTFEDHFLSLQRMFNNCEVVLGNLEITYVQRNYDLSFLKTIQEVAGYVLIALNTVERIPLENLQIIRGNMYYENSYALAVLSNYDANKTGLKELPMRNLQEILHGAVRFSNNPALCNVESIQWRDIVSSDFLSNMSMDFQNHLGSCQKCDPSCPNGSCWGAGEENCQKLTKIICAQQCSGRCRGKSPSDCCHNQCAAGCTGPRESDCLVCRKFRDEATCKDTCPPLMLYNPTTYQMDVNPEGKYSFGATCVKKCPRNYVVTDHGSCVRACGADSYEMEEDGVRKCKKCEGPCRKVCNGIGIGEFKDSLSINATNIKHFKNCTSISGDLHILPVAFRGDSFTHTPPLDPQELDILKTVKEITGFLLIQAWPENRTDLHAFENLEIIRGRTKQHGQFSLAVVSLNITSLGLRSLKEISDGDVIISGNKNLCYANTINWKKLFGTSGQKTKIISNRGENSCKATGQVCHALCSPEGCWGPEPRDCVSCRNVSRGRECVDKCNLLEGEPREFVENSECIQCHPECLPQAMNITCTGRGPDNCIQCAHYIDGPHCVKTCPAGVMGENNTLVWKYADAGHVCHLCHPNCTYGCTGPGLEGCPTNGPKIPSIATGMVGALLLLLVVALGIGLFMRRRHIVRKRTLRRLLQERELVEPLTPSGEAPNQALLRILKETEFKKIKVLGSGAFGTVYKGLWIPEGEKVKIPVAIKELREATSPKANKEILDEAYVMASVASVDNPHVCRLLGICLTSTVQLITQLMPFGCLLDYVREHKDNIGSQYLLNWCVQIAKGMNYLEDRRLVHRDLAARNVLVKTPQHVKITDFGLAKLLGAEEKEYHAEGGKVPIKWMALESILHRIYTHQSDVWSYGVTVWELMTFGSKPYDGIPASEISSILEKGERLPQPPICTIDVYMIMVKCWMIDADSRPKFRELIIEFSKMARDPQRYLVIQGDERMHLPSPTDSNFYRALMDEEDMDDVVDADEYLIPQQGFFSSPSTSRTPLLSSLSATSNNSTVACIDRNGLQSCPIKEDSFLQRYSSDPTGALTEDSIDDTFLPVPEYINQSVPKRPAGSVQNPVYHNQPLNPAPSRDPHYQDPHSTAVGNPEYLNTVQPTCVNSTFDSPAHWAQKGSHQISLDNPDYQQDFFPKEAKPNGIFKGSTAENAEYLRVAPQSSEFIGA
# experiment_notes: Ba/F3 cell viability (CellTiter-Glo), EGFR exon 20 ASV insertion
# experimental_context: Ba/F3 cells expressing EGFR exon 20 ASV Ins V769_D770, 72 hours, read-out: BaF3 ASV IC50
pIC50: −log10 of the molar value.
endpoint_label: pIC50

{"compound_smiles": "COc1c(Cl)cccc1Nc1c(-c2ccncc2C#C[C@@]2(C)CCCN2C(=O)/C=C/CN(C)C)[nH]c2cc[nH]c(=O)c12", "observed": "> 7.00"}
